Data provenance: patent US20210246166A1

Would you mind telling me the reported human MASP2 IC50 of each entry?
# assay system: Recombinant human MASP2 enzyme (fragment corresponding to amino acids 297-686, C-terminal His Tag) (human, UniProt O00187 297-686)
# Sequence (O00187 other isoform, or with tags, fused parts or gaps limits assumed): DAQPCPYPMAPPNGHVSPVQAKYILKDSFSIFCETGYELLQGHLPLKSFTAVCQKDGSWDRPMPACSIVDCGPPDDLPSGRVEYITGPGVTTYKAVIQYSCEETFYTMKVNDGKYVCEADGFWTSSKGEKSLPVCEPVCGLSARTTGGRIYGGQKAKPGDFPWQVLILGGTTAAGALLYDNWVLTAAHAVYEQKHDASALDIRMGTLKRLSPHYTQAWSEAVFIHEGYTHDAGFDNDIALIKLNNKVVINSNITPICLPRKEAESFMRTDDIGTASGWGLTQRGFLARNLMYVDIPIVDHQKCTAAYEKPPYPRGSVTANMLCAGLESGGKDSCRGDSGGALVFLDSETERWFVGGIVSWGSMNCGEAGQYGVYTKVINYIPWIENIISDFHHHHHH
# test name: cell-based or functional assay
Bridge positions count the residues as written; N and C are the ends. Square brackets hold non-standard residues; d marks the D form. Ends that are not written are not given here. Oic = O=C(O)[C@@H]1C[C@@H]2CCCC[C@@H]2N1; tBuAla = CC(C)(C)C[C@H](N)C(=O)O; αMeP = C[C@@]1(C(=O)O)CCCN1; NMeC = CN[C@@H](CS)C(=O)O; Sar = CNCC(=O)O
Kindly answer with a numeric value in nM, unit omitted.

Qu. Would you kindly share the measured human MASP2 IC50 for AICSRS[tBuAla]P[Oic]I[NMeC]I-OH (disulfide 3-11; N-terminus assumed; SMILES CC[C@H](C)[C@H](NC(=O)[C@@H]1CSSC[C@H](NC(=O)[C@@H](NC(=O)[C@H](C)N)[C@@H](C)CC)C(=O)N[C@@H](CO)C(=O)N[C@@H](CCCNC(=N)N)C(=O)N[C@@H](CO)C(=O)N[C@@H](CC(C)(C)C)C(=O)N2CCC[C@H]2C(=O)N2[C@@H](C[C@@H]3CCCC[C@@H]32)C(=O)N[C@@H]([C@@H](C)CC)C(=O)N1C)C(=O)O) [AIC+SRS-((tBu)A)-P-(Oic)-I-((N-Me)C)+I-OH] ?
Ans. 850

Qu. Would you kindly share the measured human MASP2 IC50 for [Sar]ICSRSLPPICI[αMeP]D-OH (disulfide 3-11; N-terminus assumed; SMILES CC[C@H](C)[C@H](NC(=O)CNC)C(=O)N[C@H]1CSSC[C@@H](C(=O)N[C@H](C(=O)N2CCC[C@@]2(C)C(=O)N[C@@H](CC(=O)O)C(=O)O)[C@@H](C)CC)NC(=O)[C@H]([C@@H](C)CC)NC(=O)[C@@H]2CCCN2C(=O)[C@@H]2CCCN2C(=O)[C@H](CC(C)C)NC(=O)[C@H](CO)NC(=O)[C@H](CCCNC(=N)N)NC(=O)[C@H](CO)NC1=O) [((N-Me)G)-IC+SRSLPP-IC+I-((2-Me)P)-D-OH] ?
Ans. 160
